Biological target: recombinant human ALK5 (TGF-βR1) protein (Homo sapiens, UniProt P36897)
Sequence (P36897 34-503): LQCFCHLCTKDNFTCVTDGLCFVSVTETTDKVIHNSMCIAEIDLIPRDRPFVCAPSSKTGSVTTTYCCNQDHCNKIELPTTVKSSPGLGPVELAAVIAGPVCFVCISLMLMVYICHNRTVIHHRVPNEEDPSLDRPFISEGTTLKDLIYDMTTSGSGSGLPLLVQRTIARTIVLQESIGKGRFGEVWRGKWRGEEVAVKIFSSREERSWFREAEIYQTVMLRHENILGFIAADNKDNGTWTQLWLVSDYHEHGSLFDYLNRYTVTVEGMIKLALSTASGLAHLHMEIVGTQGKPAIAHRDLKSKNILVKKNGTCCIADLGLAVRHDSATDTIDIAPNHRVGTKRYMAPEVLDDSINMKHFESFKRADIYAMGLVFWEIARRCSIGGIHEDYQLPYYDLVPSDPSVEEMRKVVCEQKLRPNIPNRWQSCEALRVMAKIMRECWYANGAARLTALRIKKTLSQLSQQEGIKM
Assay: Biochemical ALK5 (TGF-βR1) assay to measure pKi (LANCE Ultra ULight kinase assay)
Conditions: apparent pKi, converted from pIC50 by Cheng-Prusoff
pKi: −log10 of the molar value.
Catalogue of pKi values
result-type: pKi

{"compound": "Cc1cccc(-c2nc(Nc3ccnc(Nc4ccc(C(=O)NCC5CNC5)cc4)n3)c3cccn3n2)n1 [Compound 1035]", "measurement-target": "recombinant human ALK5 (TGF-βR1) protein (Homo sapiens, UniProt P36897)", "meas-value": "9.50 to 10.40"}
{"compound": "Cc1cccc(-c2nccc(Nc3ccnc(Nc4csc(C(=O)O[C@H]5CCNC5)c4)n3)n2)n1 [Compound 544]", "measurement-target": "recombinant human ALK5 (TGF-βR1) protein (Homo sapiens, UniProt P36897)", "meas-value": "9.50 to 10.40"}
{"compound": "Cc1cccc(-c2nccc(Nc3ccnc(Nc4cccc(CN5CCN(C)CC5)c4)n3)n2)n1 [Compound 521]", "measurement-target": "recombinant human ALK5 (TGF-βR1) protein (Homo sapiens, UniProt P36897)", "meas-value": "9.50 to 10.40"}
{"compound": "Cc1cccc(-c2nccc(Nc3ccnc(Nc4ccc(NS(C)(=O)=O)cc4)n3)n2)n1 [Compound 272]", "measurement-target": "recombinant human ALK5 (TGF-βR1) protein (Homo sapiens, UniProt P36897)", "meas-value": "9.50 to 10.40"}
{"compound": "Cc1cccc(-c2nccc(Nc3ccnc(Nc4ccc(C(=O)O)cc4)n3)n2)n1 [Compound 406]", "measurement-target": "recombinant human ALK5 (TGF-βR1) protein (Homo sapiens, UniProt P36897)", "meas-value": "8.50 to 9.40"}
{"compound": "Cc1cccc(-c2nccc(Nc3ccnc(Nc4ccc5c(c4)OCCO5)n3)n2)n1 [Compound 526]", "measurement-target": "recombinant human ALK5 (TGF-βR1) protein (Homo sapiens, UniProt P36897)", "meas-value": "7.50 to 8.40"}
{"compound": "Cc1cccc(-c2nccc(Nc3ccnc(Nc4ccc(S(=O)(=O)N5CCN(C(C)C)CC5)cc4)n3)n2)n1 [Compound 213]", "measurement-target": "recombinant human ALK5 (TGF-βR1) protein (Homo sapiens, UniProt P36897)", "meas-value": "9.50 to 10.40"}
{"compound": "COC(=O)Cc1ccc(Nc2nccc(Nc3ccnc(-c4cccc(C)n4)n3)n2)cc1 [Compound 442]", "measurement-target": "recombinant human ALK5 (TGF-βR1) protein (Homo sapiens, UniProt P36897)", "meas-value": "8.50 to 9.40"}
{"compound": "Cc1cccc(-c2nccc(Nc3ccnc(Nc4ccc(N5CCN(C(C)C)CC5)cc4)n3)n2)n1 [Compound 189]", "measurement-target": "recombinant human ALK5 (TGF-βR1) protein (Homo sapiens, UniProt P36897)", "meas-value": "≥ 10.50"}
{"compound": "Cc1cccc(-c2nccc(Nc3ccnc(Nc4ccc(CN5CCN(C(C)(C)C)CC5)cc4)n3)n2)n1 [Compound 109]", "measurement-target": "recombinant human ALK5 (TGF-βR1) protein (Homo sapiens, UniProt P36897)", "meas-value": "9.50 to 10.40"}
{"compound": "CCOC(=O)Cc1cc(Nc2ccnc(Nc3ccc(N4CCNCC4)cc3)n2)nc(-c2cccc(C)n2)n1 [Compound 529]", "measurement-target": "recombinant human ALK5 (TGF-βR1) protein (Homo sapiens, UniProt P36897)", "meas-value": "7.50 to 8.40"}
{"compound": "CC[C@H](C)OC(=O)C1CN(Cc2ccc(Nc3nccc(Nc4ccnc(-c5cccc(C)n5)n4)n3)cc2)CCN1 (mixture of isomers) [Compound 382]", "measurement-target": "recombinant human ALK5 (TGF-βR1) protein (Homo sapiens, UniProt P36897)", "meas-value": "9.50 to 10.40"}
{"compound": "Cc1cccc(-c2nccc(Nc3ccnc(Nc4ccc(NC(=O)C5CCNCC5)c(Cl)c4)n3)n2)n1 [Compound 158]", "measurement-target": "recombinant human ALK5 (TGF-βR1) protein (Homo sapiens, UniProt P36897)", "meas-value": "9.50 to 10.40"}
{"compound": "Cc1cccc(-c2nccc(Nc3ccnc(Nc4ccc(C(=O)N5CCN(C(C)C)CC5)cc4)n3)n2)n1 [Compound 317]", "measurement-target": "recombinant human ALK5 (TGF-βR1) protein (Homo sapiens, UniProt P36897)", "meas-value": "9.50 to 10.40"}
{"compound": "Cc1cccc(-c2nccc(Nc3ccnc(Nc4nc(C(=O)NC5CNC5)cs4)n3)n2)n1 [Compound 44]", "measurement-target": "recombinant human ALK5 (TGF-βR1) protein (Homo sapiens, UniProt P36897)", "meas-value": "9.50 to 10.40"}
